test-system: Human Cathepsin B (Homo sapiens)
Construct: purchased Sigma-Aldrich C0150
experiment-description: Enzyme inhibition assay, Human Cathepsin B (casein-FITC)
Type: biochemical
particulars: triplicates, value (SD)
Procedure: Enzyme inhibition assays were performed in triplicates using transparent 96-well plates for Calpain, Trypsin, Papain, Cathepsin L and Cathepsin B (167008; Nunc, Roskilde, Denmark), or black ones for Cathepsin S, (Greiner 96 Polystyrol GRE96fb), according to manufacturers’ instructions. Briefly, a reaction mixture of 100 µL contained: 45µL of enzyme in assay buffer, 5 µL of inhibitor diluted in DMSO. 50 µL substrate prepared in assay buffer according to manufacturers’ instructions. […]
reported-property: IC50 (µM)
The answer is to be given in µM; state only the numeric part.

QUERY: Quote Human Cathepsin B (Homo sapiens) IC50 for entry CC1CCC(c2ccoc2)N2C1CCC1(CSC3(CCC4C(C)CCC(c5ccoc5)N4C3O)C1)C2O (stereo not shown) [DTBN, 6,6′-dihydroxythiobinupharidine] .
RESULT: 1360
